system: OCT1/SLC22A1 (Homo sapiens, UniProt O15245)
Sequence (O15245 whole entry): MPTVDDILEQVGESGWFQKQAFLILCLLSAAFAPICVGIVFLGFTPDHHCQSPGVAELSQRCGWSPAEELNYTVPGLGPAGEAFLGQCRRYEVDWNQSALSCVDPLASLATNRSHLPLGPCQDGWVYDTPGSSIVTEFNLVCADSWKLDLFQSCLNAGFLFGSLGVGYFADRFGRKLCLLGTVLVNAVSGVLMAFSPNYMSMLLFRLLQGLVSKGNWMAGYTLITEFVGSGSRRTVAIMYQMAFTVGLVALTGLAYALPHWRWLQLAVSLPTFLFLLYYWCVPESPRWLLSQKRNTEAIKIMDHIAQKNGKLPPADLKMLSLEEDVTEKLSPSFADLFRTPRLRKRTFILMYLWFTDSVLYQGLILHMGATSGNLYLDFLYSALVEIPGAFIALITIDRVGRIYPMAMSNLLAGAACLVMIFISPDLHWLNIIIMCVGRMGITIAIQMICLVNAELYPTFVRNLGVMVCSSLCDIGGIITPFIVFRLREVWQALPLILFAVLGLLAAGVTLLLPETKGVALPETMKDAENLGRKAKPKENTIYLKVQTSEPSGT
test: OCT1-dependent metformin uptake in OCT1-overexpressing HEK-293 cells
Exercise: state measured IC50 for each of the compounds provided.

chemical-structure	endpoint-value
Cc1cccc(C)c1OCC(=O)N[C@@H](Cc1ccccc1)[C@@H](O)C[C@H](Cc1ccccc1)NC(=O)[C@H](C(C)C)N1CCCNC1=O	> 50 µM

Q: Output IC50 of CCC(CC)COC(=O)[C@H](C)N[P@](=O)(OC[C@H]1O[C@@](C#N)(c2ccc3c(N)ncnn23)[C@H](O)[C@@H]1O)Oc1ccccc1
Ans: 6.1 µM

----------
system: OATP1B3 (Homo sapiens, UniProt Q9NPD5)
Construct: expressed in transfected cells; host or cells: A431 cells (ATCC)
Sequence (Q9NPD5 1-702): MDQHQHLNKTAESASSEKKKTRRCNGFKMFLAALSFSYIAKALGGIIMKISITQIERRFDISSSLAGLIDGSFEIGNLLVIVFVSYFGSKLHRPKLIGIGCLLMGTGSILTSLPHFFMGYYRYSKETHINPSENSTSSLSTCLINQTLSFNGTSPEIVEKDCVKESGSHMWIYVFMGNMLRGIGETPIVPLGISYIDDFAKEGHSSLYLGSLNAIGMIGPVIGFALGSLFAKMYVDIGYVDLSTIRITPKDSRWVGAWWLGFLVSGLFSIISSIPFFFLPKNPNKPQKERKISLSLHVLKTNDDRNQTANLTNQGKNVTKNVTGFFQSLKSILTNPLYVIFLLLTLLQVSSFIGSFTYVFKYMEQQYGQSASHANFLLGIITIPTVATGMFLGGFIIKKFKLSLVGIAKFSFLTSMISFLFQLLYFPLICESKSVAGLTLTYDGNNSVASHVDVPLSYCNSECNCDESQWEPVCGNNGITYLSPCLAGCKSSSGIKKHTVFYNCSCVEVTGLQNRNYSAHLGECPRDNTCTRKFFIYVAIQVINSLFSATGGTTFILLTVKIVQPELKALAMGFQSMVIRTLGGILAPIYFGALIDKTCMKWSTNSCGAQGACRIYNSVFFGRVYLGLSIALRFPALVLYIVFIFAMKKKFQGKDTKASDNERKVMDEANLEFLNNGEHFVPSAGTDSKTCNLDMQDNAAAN
test: OATP1B3-dependent pyranine uptake in overexpressing A431 cells
Assay type: cell-based
measurement-setup: approximate IC50; pyranine 20 µM, 30 min, 37 °C
measurement-type: pIC50
Numbers only, as −log10 of the molar value.

Q: Output pIC50 of CCC(C)C1OC2(CCC1C)CC1CC(CC=C(C)C(OC3CC(OC)C(OC4CC(OC)C(O)C(C)O4)C(C)O3)C(C)C=CC=C3COC4C(O)C(C)=CC(C(=O)O1)C34O)O2 (stereo not shown)
Ans: 5.85

----------
system: OATP1B1 (Homo sapiens)
Construct: expressed in transfected cells; host or cells: A431 cells (ATCC)
Sequence (Q9Y6L6 whole entry): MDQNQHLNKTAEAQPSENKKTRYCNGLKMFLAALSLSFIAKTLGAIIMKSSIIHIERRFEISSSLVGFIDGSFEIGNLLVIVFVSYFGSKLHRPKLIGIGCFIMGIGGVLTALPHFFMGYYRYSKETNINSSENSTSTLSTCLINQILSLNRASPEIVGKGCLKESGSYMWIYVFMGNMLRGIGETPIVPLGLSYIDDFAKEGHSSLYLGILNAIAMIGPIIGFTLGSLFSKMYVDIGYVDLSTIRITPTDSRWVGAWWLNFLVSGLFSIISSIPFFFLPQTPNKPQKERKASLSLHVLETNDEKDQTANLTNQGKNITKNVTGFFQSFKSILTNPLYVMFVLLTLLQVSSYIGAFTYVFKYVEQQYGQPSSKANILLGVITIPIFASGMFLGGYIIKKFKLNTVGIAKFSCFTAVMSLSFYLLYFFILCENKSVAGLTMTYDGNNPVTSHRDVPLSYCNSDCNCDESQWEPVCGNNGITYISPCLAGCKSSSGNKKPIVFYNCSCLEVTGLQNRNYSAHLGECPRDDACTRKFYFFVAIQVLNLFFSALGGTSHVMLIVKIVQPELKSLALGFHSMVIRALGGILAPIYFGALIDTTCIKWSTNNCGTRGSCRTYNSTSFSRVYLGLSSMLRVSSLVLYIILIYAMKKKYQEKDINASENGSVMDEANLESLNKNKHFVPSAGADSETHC
test: OATP1B1-dependent pyranine uptake in overexpressing A431 cells
Type: cell-based
measurement-type: IC50 (nM)
Give bare numbers, in nM.

chemical-structure	system	IC50 / nM
CCC(CC)COC(=O)[C@H](C)N[P@](=O)(OC[C@H]1O[C@@](C#N)(c2ccc3c(N)ncnn23)[C@H](O)[C@@H]1O)Oc1ccccc1	OATP1B1 (Homo sapiens)	2900

Continue with the next compound.
Q: Output IC50 of Cc1cccc(C)c1OCC(=O)N[C@@H](Cc1ccccc1)[C@@H](O)C[C@H](Cc1ccccc1)NC(=O)[C@H](C(C)C)N1CCCNC1=O
Ans: 1100

----------
system: ABCC3/MRP3 (Homo sapiens, UniProt O15438)
Construct: purchased Solvo Biotechnology (Budapest, Hungary); host or cells: HEK-293 cells
Sequence (O15438 whole entry): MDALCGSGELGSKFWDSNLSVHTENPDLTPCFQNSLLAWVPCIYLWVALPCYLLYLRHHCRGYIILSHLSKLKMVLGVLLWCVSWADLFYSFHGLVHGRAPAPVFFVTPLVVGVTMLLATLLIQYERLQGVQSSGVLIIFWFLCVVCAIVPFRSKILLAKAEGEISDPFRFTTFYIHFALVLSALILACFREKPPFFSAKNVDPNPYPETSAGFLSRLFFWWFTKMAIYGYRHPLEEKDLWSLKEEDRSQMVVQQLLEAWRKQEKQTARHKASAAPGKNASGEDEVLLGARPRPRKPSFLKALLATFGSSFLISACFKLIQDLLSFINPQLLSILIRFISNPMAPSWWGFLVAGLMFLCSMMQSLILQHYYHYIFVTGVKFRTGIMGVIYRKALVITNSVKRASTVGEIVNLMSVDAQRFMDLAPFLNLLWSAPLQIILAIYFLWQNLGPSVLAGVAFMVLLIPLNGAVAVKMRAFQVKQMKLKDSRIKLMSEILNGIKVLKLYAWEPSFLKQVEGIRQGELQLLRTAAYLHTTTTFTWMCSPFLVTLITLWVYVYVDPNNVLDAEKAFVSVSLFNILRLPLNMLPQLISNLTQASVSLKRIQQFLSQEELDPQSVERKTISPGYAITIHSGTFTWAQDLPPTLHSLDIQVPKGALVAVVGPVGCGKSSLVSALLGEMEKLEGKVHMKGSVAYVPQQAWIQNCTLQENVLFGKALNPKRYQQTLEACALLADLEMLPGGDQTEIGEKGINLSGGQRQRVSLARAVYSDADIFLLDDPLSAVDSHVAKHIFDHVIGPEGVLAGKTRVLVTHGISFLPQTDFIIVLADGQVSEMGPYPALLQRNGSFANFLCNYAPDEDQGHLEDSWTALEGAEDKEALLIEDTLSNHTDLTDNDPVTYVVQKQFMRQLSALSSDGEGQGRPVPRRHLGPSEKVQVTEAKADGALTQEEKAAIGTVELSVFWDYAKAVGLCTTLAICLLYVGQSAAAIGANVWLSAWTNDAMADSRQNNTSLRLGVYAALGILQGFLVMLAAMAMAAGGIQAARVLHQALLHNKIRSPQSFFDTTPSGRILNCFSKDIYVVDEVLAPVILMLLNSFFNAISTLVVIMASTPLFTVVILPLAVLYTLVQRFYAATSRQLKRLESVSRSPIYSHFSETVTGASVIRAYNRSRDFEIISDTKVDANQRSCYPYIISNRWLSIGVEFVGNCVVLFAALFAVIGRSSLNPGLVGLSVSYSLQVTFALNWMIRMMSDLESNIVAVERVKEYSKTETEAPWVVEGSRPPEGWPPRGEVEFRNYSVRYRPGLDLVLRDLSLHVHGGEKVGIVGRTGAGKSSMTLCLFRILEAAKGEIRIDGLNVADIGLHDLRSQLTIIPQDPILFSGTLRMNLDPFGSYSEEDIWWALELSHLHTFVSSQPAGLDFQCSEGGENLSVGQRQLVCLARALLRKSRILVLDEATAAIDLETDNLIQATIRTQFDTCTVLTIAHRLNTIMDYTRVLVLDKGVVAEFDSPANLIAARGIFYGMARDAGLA
test: MRP3 vesicular transport: ATP- and benzbromarone-sensitive CDCF uptake into inverted HEK-293 membrane vesicles
Assay type: biochemical
measurement-type: IC50

Q: Output IC50 of Cc1cccc(C)c1OCC(=O)N[C@@H](Cc1ccccc1)[C@@H](O)C[C@H](Cc1ccccc1)NC(=O)[C@H](C(C)C)N1CCCNC1=O
Ans: > 40 µM

----------
system: ABCB11/BSEP (Homo sapiens)
Construct: purchased Solvo Biotechnology (Budapest, Hungary); host or cells: HEK-293 cells
test: BSEP vesicular transport: ATP- and glyburide-sensitive taurocholate uptake into inverted HEK-293 membrane vesicles
Type: biochemical
measurement-setup: approximate IC50; taurocholate 2 µM, 37 °C, 10 min
measurement-type: IC50

Q: Output IC50 of CCC(C)C1OC2(CCC1C)CC1CC(CC=C(C)C(OC3CC(OC)C(OC4CC(OC)C(O)C(C)O4)C(C)O3)C(C)C=CC=C3COC4C(O)C(C)=CC(C(=O)O1)C34O)O2 (stereo not shown) [IVE, ivermectin]
Ans: ≥ 30 µM

----------
system: ABCC4/MRP4 (Homo sapiens, UniProt O15439)
Construct: purchased Solvo Biotechnology (Budapest, Hungary); host or cells: HEK-293 cells
Sequence (O15439 whole entry): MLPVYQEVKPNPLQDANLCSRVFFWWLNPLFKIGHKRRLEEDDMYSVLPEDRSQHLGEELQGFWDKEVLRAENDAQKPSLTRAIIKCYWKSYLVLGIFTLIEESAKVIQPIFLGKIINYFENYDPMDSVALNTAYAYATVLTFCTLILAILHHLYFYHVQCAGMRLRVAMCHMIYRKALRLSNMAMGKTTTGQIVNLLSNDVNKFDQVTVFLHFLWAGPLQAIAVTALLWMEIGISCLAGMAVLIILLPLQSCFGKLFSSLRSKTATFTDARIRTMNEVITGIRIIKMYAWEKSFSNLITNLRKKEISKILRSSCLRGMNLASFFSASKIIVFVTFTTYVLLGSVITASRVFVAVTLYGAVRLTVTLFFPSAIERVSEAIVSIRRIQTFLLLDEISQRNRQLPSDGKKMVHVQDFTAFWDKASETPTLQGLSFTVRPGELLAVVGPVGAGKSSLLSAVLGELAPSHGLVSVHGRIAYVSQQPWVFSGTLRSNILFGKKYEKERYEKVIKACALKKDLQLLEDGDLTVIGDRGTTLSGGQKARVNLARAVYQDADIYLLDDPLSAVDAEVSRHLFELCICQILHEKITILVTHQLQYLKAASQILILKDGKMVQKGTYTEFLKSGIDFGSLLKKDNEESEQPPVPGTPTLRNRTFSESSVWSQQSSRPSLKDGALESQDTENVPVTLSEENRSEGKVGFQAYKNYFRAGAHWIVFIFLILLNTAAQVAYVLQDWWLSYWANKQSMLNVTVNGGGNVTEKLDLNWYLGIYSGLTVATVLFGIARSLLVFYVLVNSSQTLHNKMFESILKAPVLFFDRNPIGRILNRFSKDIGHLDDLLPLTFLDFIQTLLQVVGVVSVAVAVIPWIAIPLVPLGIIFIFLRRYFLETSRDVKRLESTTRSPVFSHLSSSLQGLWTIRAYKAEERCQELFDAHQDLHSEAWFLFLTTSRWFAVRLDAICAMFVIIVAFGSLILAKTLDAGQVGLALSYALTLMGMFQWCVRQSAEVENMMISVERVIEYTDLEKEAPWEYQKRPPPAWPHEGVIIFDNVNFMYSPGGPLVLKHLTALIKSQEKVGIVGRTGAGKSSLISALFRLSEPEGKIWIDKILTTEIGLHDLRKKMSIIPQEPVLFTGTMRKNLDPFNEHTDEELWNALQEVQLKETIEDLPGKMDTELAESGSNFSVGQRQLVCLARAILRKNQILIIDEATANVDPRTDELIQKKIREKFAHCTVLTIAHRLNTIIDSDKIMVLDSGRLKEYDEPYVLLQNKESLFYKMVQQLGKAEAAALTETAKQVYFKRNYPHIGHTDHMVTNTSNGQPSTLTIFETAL
test: MRP4 vesicular transport: ATP-dependent DHEAS uptake into inverted HEK-293 membrane vesicles
Assay type: biochemical
measurement-type: IC50 (nM)
Answers are plain numbers, in nM.

Q: Output IC50 of CCC(CC)COC(=O)[C@H](C)N[P@](=O)(OC[C@H]1O[C@@](C#N)(c2ccc3c(N)ncnn23)[C@H](O)[C@@H]1O)Oc1ccccc1
Ans: 2900

----------
system: NTCP/SLC10A1 (Homo sapiens, UniProt Q14973)
Construct: expressed in transfected cells; host or cells: HEK-293 cells, lentiviral transduction
Sequence (Q14973 1-349): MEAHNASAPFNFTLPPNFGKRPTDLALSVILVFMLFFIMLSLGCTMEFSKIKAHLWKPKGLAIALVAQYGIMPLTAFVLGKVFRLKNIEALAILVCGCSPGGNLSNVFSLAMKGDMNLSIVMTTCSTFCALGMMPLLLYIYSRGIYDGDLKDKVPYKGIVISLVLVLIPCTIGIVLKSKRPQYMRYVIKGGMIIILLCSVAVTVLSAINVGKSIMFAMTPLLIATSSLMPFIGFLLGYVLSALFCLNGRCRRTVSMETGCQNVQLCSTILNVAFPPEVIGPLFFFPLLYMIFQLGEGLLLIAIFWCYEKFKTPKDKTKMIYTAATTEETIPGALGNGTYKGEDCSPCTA
test: NTCP-dependent taurocholate uptake in NTCP-overexpressing HEK-293 cells
Assay type: cell-based
measurement-setup: taurocholate 2 µM, 2 min, 37 °C, HEK-293 cells
measurement-type: NTCP/SLC10A1 Type of effect

compound	endpoint-value
NC(=O)c1nc(F)c[nH]c1=O [FAV, favipiravir]	only minor inhibition
CCC(CC)COC(=O)[C@H](C)N[P@](=O)(OC[C@H]1O[C@@](C#N)(c2ccc3c(N)ncnn23)[C@H](O)[C@@H]1O)Oc1ccccc1 [REM, remdesivir]	inh
Cc1cccc(C)c1OCC(=O)N[C@@H](Cc1ccccc1)[C@@H](O)C[C@H](Cc1ccccc1)NC(=O)[C@H](C(C)C)N1CCCNC1=O [LOP, lopinavir]	inh
CCC(C)C1OC2(CCC1C)CC1CC(CC=C(C)C(OC3CC(OC)C(OC4CC(OC)C(O)C(C)O4)C(C)O3)C(C)C=CC=C3COC4C(O)C(C)=CC(C(=O)O1)C34O)O2 (stereo not shown) [IVE, ivermectin]	only minor inhibition

----------
system: ABCC3/MRP3 (Homo sapiens, UniProt O15438)
Construct: purchased Solvo Biotechnology (Budapest, Hungary); host or cells: HEK-293 cells
test: MRP3 vesicular transport: ATP- and benzbromarone-sensitive CDCF uptake into inverted HEK-293 membrane vesicles
Assay type: biochemical
measurement-setup: CDCF 5 µM, 37 °C, 10 min, HEK-293 vesicles

compound	ABCC3/MRP3 Type of effect
Cc1cccc(C)c1OCC(=O)N[C@@H](Cc1ccccc1)[C@@H](O)C[C@H](Cc1ccccc1)NC(=O)[C@H](C(C)C)N1CCCNC1=O	inh
CCC(C)C1OC2(CCC1C)CC1CC(CC=C(C)C(OC3CC(OC)C(OC4CC(OC)C(O)C(C)O4)C(C)O3)C(C)C=CC=C3COC4C(O)C(C)=CC(C(=O)O1)C34O)O2 (stereo not shown)	inh
CC(C)c1nc(CN(C)C(=O)N[C@H](C(=O)N[C@@H](Cc2ccccc2)C[C@H](O)[C@H](Cc2ccccc2)NC(=O)OCc2cncs2)C(C)C)cs1	inh

----------
system: ABCC4/MRP4 (Homo sapiens)
Construct: purchased Solvo Biotechnology (Budapest, Hungary); host or cells: HEK-293 cells
test: MRP4 vesicular transport: ATP-dependent DHEAS uptake into inverted HEK-293 membrane vesicles
Type: biochemical
measurement-setup: human, probe DHEAS (0.5 µM unlabeled plus 0.2 µCi radiolabeled); up to 50 µM drug; read-out: maximum inhibition of MRP4-dependent substrate transport
measurement-type: inhibition at […]

chemical-structure	inhibition at […]
Cc1cccc(C)c1OCC(=O)N[C@@H](Cc1ccccc1)[C@@H](O)C[C@H](Cc1ccccc1)NC(=O)[C@H](C(C)C)N1CCCNC1=O	10 to 30%

Continue with the next compound.
Q: Output inhibition at […] of NC(=O)c1nc(F)c[nH]c1=O
Ans: 10 to 30%
